# Test system: Calf thymus DNA
# Assay Info: Binding affinity to calf thymus DNA assessed as change in melting temperature at compound to calf thymus DNA polynucleotide ratio of 0.5 by spectrophotometric analysis
# Type: nucleic-acid assay
# Applied Conditions: Bos taurus
Endpoint: ΔTm (°C)

> print(dat)
                               smiles.input  recorded.number
1  Cl.Cl.c1cc(OCc2cn(Cc3ccc(-c4nc5cc(C6=NCCN6)ccc5[nH]4)o3)nn2)ccc1OCc1cn(Cc2ccc(-c3nc4cc(C5=NCCN5)ccc4[nH]3)o2)nn1                0

I = Fc1ccc2[nH]c(-c3ccc(Cn4cc(COCc5cn(Cc6ccc(-c7nc8cc(F)ccc8[nH]7)o6)nn5)nn4)o3)nc2c1
II = Fc1ccc2[nH]c(-c3ccc(Cn4cc(CCCc5cn(Cc6ccc(-c7nc8cc(F)ccc8[nH]7)o6)nn5)nn4)o3)nc2c1
III = CC(C)NC(=N)c1ccc2[nH]c(-c3ccc(Cn4cc(CCCc5cn(Cc6ccc(-c7nc8cc(C(=N)NC(C)C)ccc8[nH]7)o6)nn5)nn4)o3)nc2c1.Cl.Cl
Arrange these compounds by their ΔTm, starting with the largest number. List labels; respect the requested ordering. III, II, I
(III: 14.8 °C, II: 2 °C, I: 0 °C)

a = Clc1ccc2[nH]c(-c3ccc(Cn4cc(COc5ccc(OCc6cn(Cc7ccc(-c8nc9cc(Cl)ccc9[nH]8)o7)nn6)cc5)nn4)o3)nc2c1
b = Cl.Cl.N=C(N)c1ccc2[nH]c(-c3ccc(Cn4cc(COCc5cn(Cc6ccc(-c7nc8cc(C(=N)N)ccc8[nH]7)o6)nn5)nn4)o3)nc2c1
Please choose the item with the lower ΔTm value from this pair: a and b Please identify the chosen entry by its label. a
